All figures here come from patent US6150414A.

target: Radiation Leukemia Virus reverse transcriptase (Radiation murine leukemia virus, UniProt P11227); construct: the reverse transcriptase of Radiation Leukemia Virus; endogenous in cells; assay: Radiation Leukemia Virus reverse transcriptase assay, supernatants from infected AQR cells (Examples 4 and 9); assay type: biochemical; conditions: 0.5 h; 0.1 micrograms; Table VIII
quantity measured: inhibition at 0.0001 mg (%)
All answers are understood in %, so give the number only.

Look up inhibition at 0.0001 mg for this compound: O=c1c2ccccc2c2c3c1c(O)cc(O)c3c1c(O)cc(O)c3c(=O)c4ccccc4c2c31 [WIS-2, Tetrahydroxy-dibenzoperylene-dione]
70.8

Let us now turn to `O=c1c2c(O)ccc3c4ccc(O)c5c(=O)c6c(O)cc(O)c7c8c(O)cc(O)c1c8c(c23)c(c54)c67`
97.4

Let us now turn to `Cc1cc(O)c2cc3c(O)cc(O)c4c5c(O)cc(O)c6cc7c(O)cc(C)c8c1c2c(c34)c(c78)c65`
79

Let us now turn to CC(=O)Oc1cc(C)c2c3c(C)cc(OC(C)=O)c4cc5c(OC(C)=O)cc(OC(C)=O)c6c7c(OC(C)=O)cc(OC(C)=O)c8cc1c2c(c87)c(c43)c56 [WIS-4, desoxohypericinhexaacetate]
82.3

Let us now turn to CC(=O)Oc1cc(O)c2c(=O)c3c(O)cc(C)c4c5c(C)cc(O)c6c(=O)c7c(O)cc(OC(C)=O)c8c1c2c(c34)c(c65)c78 [WIS-6, hypericin diacetate]
52.3

---

target: Radiation Leukemia Virus reverse transcriptase (Radiation murine leukemia virus, UniProt P11227); construct: the reverse transcriptase of Radiation Leukemia Virus; endogenous in cells; assay: Radiation Leukemia Virus reverse transcriptase assay, supernatants from infected AQR cells (Examples 4 and 9); type: biochemical; conditions: 0.05 micrograms; Table VIII
Can you tell me Average CPM for the items I'm about to list?

Look up Average CPM for this compound: O=c1c2c(O)ccc3c4ccc(O)c5c(=O)c6c(O)cc(O)c7c8c(O)cc(O)c1c8c(c23)c(c54)c67 [WIS-3, desmethylhypericin]
78,424 CPM

Let us now turn to CC(=O)Oc1cc(O)c2c(=O)c3c(O)cc(C)c4c5c(C)cc(O)c6c(=O)c7c(O)cc(OC(C)=O)c8c1c2c(c34)c(c65)c78 [WIS-6, hypericin diacetate]
190,506 CPM

Let us now turn to CC(=O)Oc1cc(C)c2c3c(C)cc(OC(C)=O)c4cc5c(OC(C)=O)cc(OC(C)=O)c6c7c(OC(C)=O)cc(OC(C)=O)c8cc1c2c(c87)c(c43)c56 [WIS-4, desoxohypericinhexaacetate]
164,212 CPM

Let us now turn to Cc1cc(O)c2cc3c(O)cc(O)c4c5c(O)cc(O)c6cc7c(O)cc(C)c8c1c2c(c34)c(c78)c65 [WIS-5, desoxyhypericin]
193,017 CPM

---

target: Radiation Leukemia Virus reverse transcriptase (Radiation murine leukemia virus, UniProt P11227); construct: the reverse transcriptase of Radiation Leukemia Virus; endogenous in cells; test: Radiation Leukemia Virus reverse transcriptase assay, supernatants from infected AQR cells (Examples 4 and 9); assay type: biochemical; details: 0.5 micrograms; Table VIII
Can you tell me Average CPM for the items I'm about to list?

Look up Average CPM for this molecule: CC(=O)Oc1cc(C)c2c3c(C)cc(OC(C)=O)c4cc5c(OC(C)=O)cc(OC(C)=O)c6c7c(OC(C)=O)cc(OC(C)=O)c8cc1c2c(c87)c(c43)c56 [WIS-4, desoxohypericinhexaacetate]
208,119 CPM

Let us now turn to Cc1cc(O)c2cc3c(O)cc(O)c4c5c(O)cc(O)c6cc7c(O)cc(C)c8c1c2c(c34)c(c78)c65 [WIS-5, desoxyhypericin]
249,351 CPM

Let us now turn to CC(=O)Oc1cc(O)c2c(=O)c3c(O)cc(C)c4c5c(C)cc(O)c6c(=O)c7c(O)cc(OC(C)=O)c8c1c2c(c34)c(c65)c78 [WIS-6, hypericin diacetate]
161,570 CPM

Let us now turn to O=c1c2c(O)ccc3c4ccc(O)c5c(=O)c6c(O)cc(O)c7c8c(O)cc(O)c1c8c(c23)c(c54)c67 [WIS-3, desmethylhypericin]
2,799 CPM
